These measurements were taken from the supplement of paper PMC10567573.

protocol-details: protein stability index of a GFP-peptide fusion (GPS, HEK-293T) (PSI 1-6); higher = more stable;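 further: 24-mer peptide tiles fused after GFP, lentivirally expressed, FACS-sorted into six equal bins by GFP/DsRed ratio, decoded by Illumina sequencing, PSI is the read-weighted mean bin number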
setup-conditions: treatment: MLN4924 1 uM, 8 h; c terminus: a fixed tail appended
endpoint-label: protein stability index

>>> df
                     construct_sequence  value
 0      IIVRTTNKKYYKKFSIPDLDRHQL [DPCD]   2.14
 1     DEVQIGPETVMTTLYTAKKYAVPA [BTBD1]   3.55
 2     SPDVLQMLKIHRSDPQLIVQLRFC [TRADD]   2.56
 3     RHCDDDGRTENGALAPKQELPSAL [ZNF24]   5.15
 4    TLHGVVNESTVCLMSYERRQILHL [TENT5D]   2.44
 5     TKLLSGSYDCTVKLWDPVDGSVVR [WDR88]   3.19
 6    RGKNKMAAQNCRKRKLDTILNLER [NFE2L1]   3.63
 7      DKNVQVVELPIVDSLHPRPPYLPL [FUT8]   3.35
 8    LKTQSLEGKRKAFYTCASHVTVVI [OR4A15]   3.24
 9     CSMSATFTLNFFRSGIQFGSWGSF [CLCN6]   2.75
10      DQNRDGFIDKEDLKDTYASLGKTN [MYL5]    5.2
11   WNDFLMCYSSRPLLCWSVWWALST [SLC19A2]   3.32
12     RVKLTKRSGHTQTDYINASFMDGY [PTPN9]   2.87
13      MDGATLCNCALEELRLVFGPLGDQ [ELF3]    2.4
14       LFEGLGRDKAEELLQLPDTKVGSF [SLA]   4.13
15    TFPDLESEFQAALSRKVAELVHFL [MAGEA3]   2.45
16    PSGHSDAQTLAMMLQEQLDAINEE [PPFIA4]   4.46
17     RCIGVTKPIFHSTKITSKHVKMML [PTGFR]   2.15
18     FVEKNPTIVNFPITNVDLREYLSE [USP39]   3.01
19   AVAGPPAAAEVGGGVGGSSRARSA [ANKRD17]   5.14
20    FRLKTINLQSLINNEIPDCYTFSV [MCOLN1]   2.51
21  HFSLRVQSRANGVKYPELVLEHSL [PCDHGA10]   2.27
22     CYRSQDYGGRSVAPQNSFSAKLAP [KCNK9]   3.19
23     CVTLMQGHEGSVSSCHFARDSSFL [WDR88]   2.39
24      FGSSVPEKQSRCVNIEWHRFRFGQ [WSB1]   2.12
25     IEQDAVVPSEWLSSVYKQQWFAML [GMCL1]   2.78
26   RVAIAHYQDDPDLRFLLDQVQLGL [TSPAN10]   2.36
27      LKENNFQPYPLPHVRHMAYQLCHA [CLK3]   2.21
28     SLLQSAWMEILILGVVYRSLSFED [ESRRG]   3.07
29      SVPLDPMERPMSQADLELDYNPPR [CBY2]   4.98
30     FSGCLNCSKVSELTERLKVLEAKM [EMID1]   2.93
31   NSRVDDTFWASWRAFAQIGPARSG [MIR22HG]   2.79
32   CFVLFSLTHTHTHTPNHRGINCFF [ANKRD44]   2.82
33   QVDVGDVNDNAPEVLLASLANPVL [PCDHGC5]   4.21
34     TLGGKAFHITNDEPIPFWTFLSRI [NSDHL]   2.28
35    SNQIPTEVRSKAEEVVSFVKKNVL [FUNDC2]   3.73
36    DLYALKSVKIPVRNHGILMETHKE [LYSMD4]   3.25
37     VQIKTWFQNRRMKHKRQMQDPQLH [VENTX]   2.52
38      EKHCEFKQLALDHFKKTKKMGGKD [ATL3]   4.57
39    VWMLMLLLAVPNIILTNQSVREVT [P2RY14]   2.96
40  VAACTKEIDTQGRHLAHSMLQRAI [C10orf62]    2.9
41      VLLMKDRETNKSRGFAFVTFESPA [RBMX]    2.2
42     KGAVPRSIPNLAEVKKKGKMKKLG [HDAC6]   4.35
43     PRAKSKVWKYFGFDTNAEGCILQW [ZBED1]   2.38
44    SETGSTGALETRSLKDHKVSFLRS [C2CD2L]   4.46
45       DDLTVVDAASLRRQIIKLNRRLQL [MFF]    2.9
46    SAPLQGAVPPTSSVPPVAGAPSVG [SNAP91]   4.99
47    SIKPEASQMPPPAGGTSDDPEPSG [SCNN1D]   5.57
48      EAETPPNGPDCGYGSFHQQYWLDG [ATE1]   4.15
49   CKICGRTFFPVALKKHGPICQKTA [ZC2HC1A]   3.92
50      LRALGAQIEKTTNREACRDLSGRR [SDE2]   4.48
51   IFGSNKWTTEQQQRFHEICSNLVK [ARL6IP1]   3.03
52  SKSKQPAGHRRPAGGIRESKESSK [C22orf31]   4.91
